Data credit: patent US20200038513A1

assay: Pharmacokinetics of intraperitoneal or intravenous injection in CD1 mice; type: in vivo; settings: male, CD1, mouse, plasma, iv, 1 mg/kg, IV 1.0 mg/kg, CD1 mice plasma, 0.083 h; read-out: Conc. (ng/mL) Mouse 2
EXPERIMENTAL_READOUT: concentration at 0.083 h (ng/mL)
All answers are understood in ng/mL, so give the number only.

Observe how each entry below is paired with its result.
{"COMPOUND": "Cc1ncsc1-c1ccc(CNC(=O)[C@@H]2C[C@@H](O)CN2C(=O)[C@@H](NC(=O)CCOCCCOc2ccc(Nc3ncc(C(F)(F)F)c(NCc4cccc(N(C)S(C)(=O)=O)c4)n3)cc2)C(C)(C)C)cc1", "ASSAY_RESULT": 1730}
{"COMPOUND": "CN(c1cccc(CNc2nc(Nc3ccc(OCCCOCCC(=O)NCCOc4cccc5c4C(=O)N(C4CCC(=O)NC4=O)C5=O)cc3)ncc2C(F)(F)F)c1)S(C)(=O)=O (centres unmarked)", "ASSAY_RESULT": 9.65}
{"COMPOUND": "Cc1ncsc1-c1ccc(CNC(=O)[C@@H]2C[C@@H](O)CN2C(=O)[C@@H](NC(=O)CCOCCOc2ccc(Nc3ncc(C(F)(F)F)c(NCc4cccc(N(C)S(C)(=O)=O)c4)n3)cc2)C(C)(C)C)cc1", "ASSAY_RESULT": 368}

Request the reported concentration at 0.083 h associated with Cc1ncsc1-c1ccc(CNC(=O)[C@@H]2C[C@@H](O)CN2C(=O)[C@@H](NC(=O)COCCOc2ccc(Nc3ncc(C(F)(F)F)c(NCc4cccc(N(C)S(C)(=O)=O)c4)n3)cc2)C(C)(C)C)cc1
313

Which concentration at 0.083 h is reported for this compound? Cc1ncsc1-c1ccc(CNC(=O)[C@@H]2C[C@@H](O)CN2C(=O)[C@@H](NC(=O)COCCCOc2ccc(Nc3ncc(C(F)(F)F)c(NCc4cccc(N(C)S(C)(=O)=O)c4)n3)cc2)C(C)(C)C)cc1
303

----------
experiment: Pharmacokinetics of intraperitoneal or intravenous injection in CD1 mice; type: in vivo; conditions: male, CD1, mouse, plasma, ip, 10 mg/kg, IP 10 mg/kg, CD1 mice plasma, 2 h; read-out: Conc. (ng/mL) Mouse 2
Under this convention, label 1 denotes concentration at 2 h strictly below 2000 ng/mL and label 0 denotes concentration at 2 h at or above 2000 ng/mL.

Consider the worked cases shown below.
{"COMPOUND": "Cc1ncsc1-c1ccc(CNC(=O)[C@@H]2C[C@@H](O)CN2C(=O)[C@@H](NC(=O)CCOCCCOc2ccc(Nc3ncc(C(F)(F)F)c(NCc4cccc(N(C)S(C)(=O)=O)c4)n3)cc2)C(C)(C)C)cc1", "GROUP": "label 0"}
{"COMPOUND": "Cc1ncsc1-c1ccc(CNC(=O)[C@@H]2C[C@@H](O)CN2C(=O)[C@@H](NC(=O)CCOCCOc2ccc(Nc3ncc(C(F)(F)F)c(NCc4cccc(N(C)S(C)(=O)=O)c4)n3)cc2)C(C)(C)C)cc1", "GROUP": "label 1"}
{"COMPOUND": "Cc1ncsc1-c1ccc(CNC(=O)[C@@H]2C[C@@H](O)CN2C(=O)[C@@H](NC(=O)COCCOc2ccc(Nc3ncc(C(F)(F)F)c(NCc4cccc(N(C)S(C)(=O)=O)c4)n3)cc2)C(C)(C)C)cc1", "GROUP": "label 1"}

Report whether reported concentration at 2 h is lower than 2000 ng/mL (strictly) for CN(c1cccc(CNc2nc(Nc3ccc(OCCCOCCC(=O)NCCOc4cccc5c4C(=O)N(C4CCC(=O)NC4=O)C5=O)cc3)ncc2C(F)(F)F)c1)S(C)(=O)=O (centres unmarked)
label 1

In plain terms, does Cc1ncsc1-c1ccc(CNC(=O)[C@@H]2C[C@@H](O)CN2C(=O)[C@@H](NC(=O)COCCCOc2ccc(Nc3ncc(C(F)(F)F)c(NCc4cccc(N(C)S(C)(=O)=O)c4)n3)cc2)C(C)(C)C)cc1 come in under 2000 ng/mL for concentration at 2 h?
label 1

----------
Collected concentration at 2 h values appear next to each entry.
test: Pharmacokinetics of intraperitoneal or intravenous injection in CD1 mice; type: in vivo; details: male, CD1, mouse, plasma, iv, 1 mg/kg, IV 1.0 mg/kg, CD1 mice plasma, 2 h; read-out: Mean
Please reply with the bare figure in ng/mL and do not write the unit itself.

{"COMPOUND_SMILES": "Cc1ncsc1-c1ccc(CNC(=O)[C@@H]2C[C@@H](O)CN2C(=O)[C@@H](NC(=O)CCOCCOc2ccc(Nc3ncc(C(F)(F)F)c(NCc4cccc(N(C)S(C)(=O)=O)c4)n3)cc2)C(C)(C)C)cc1", "UNIT_DESCRIPTOR": "ng/mL", "concentration at 2 h": 7.62}
{"COMPOUND_SMILES": "Cc1ncsc1-c1ccc(CNC(=O)[C@@H]2C[C@@H](O)CN2C(=O)[C@@H](NC(=O)CCOCCCOc2ccc(Nc3ncc(C(F)(F)F)c(NCc4cccc(N(C)S(C)(=O)=O)c4)n3)cc2)C(C)(C)C)cc1", "UNIT_DESCRIPTOR": "ng/mL", "concentration at 2 h": 32}
{"COMPOUND_SMILES": "Cc1ncsc1-c1ccc(CNC(=O)[C@@H]2C[C@@H](O)CN2C(=O)[C@@H](NC(=O)COCCCOc2ccc(Nc3ncc(C(F)(F)F)c(NCc4cccc(N(C)S(C)(=O)=O)c4)n3)cc2)C(C)(C)C)cc1", "UNIT_DESCRIPTOR": "ng/mL", "concentration at 2 h": 6.21}

Need concentration at 2 h of Cc1ncsc1-c1ccc(CNC(=O)[C@@H]2C[C@@H](O)CN2C(=O)[C@@H](NC(=O)COCCOc2ccc(Nc3ncc(C(F)(F)F)c(NCc4cccc(N(C)S(C)(=O)=O)c4)n3)cc2)C(C)(C)C)cc1 , thanks.
4.37

----------
Overview of reported concentration at 0.033 h across a group of molecules:
assay: Pharmacokinetics of intraperitoneal or intravenous injection in CD1 mice; type: in vivo; settings: male, CD1, mouse, plasma, iv, 1 mg/kg, IV 1.0 mg/kg, CD1 mice plasma, 0.033 h; read-out: Conc. (ng/mL) Mouse 2
Please give a number only; it is taken to be in ng/mL.

Record excerpt, results attached:
{"MOLECULE": "Cc1ncsc1-c1ccc(CNC(=O)[C@@H]2C[C@@H](O)CN2C(=O)[C@@H](NC(=O)CCOCCCOc2ccc(Nc3ncc(C(F)(F)F)c(NCc4cccc(N(C)S(C)(=O)=O)c4)n3)cc2)C(C)(C)C)cc1", "concentration at 0.033 h (ng/mL)": 3940}
{"MOLECULE": "CN(c1cccc(CNc2nc(Nc3ccc(OCCCOCCC(=O)NCCOc4cccc5c4C(=O)N(C4CCC(=O)NC4=O)C5=O)cc3)ncc2C(F)(F)F)c1)S(C)(=O)=O (centres unmarked)", "concentration at 0.033 h (ng/mL)": 31.6}
{"MOLECULE": "Cc1ncsc1-c1ccc(CNC(=O)[C@@H]2C[C@@H](O)CN2C(=O)[C@@H](NC(=O)COCCOc2ccc(Nc3ncc(C(F)(F)F)c(NCc4cccc(N(C)S(C)(=O)=O)c4)n3)cc2)C(C)(C)C)cc1", "concentration at 0.033 h (ng/mL)": 1390}

Need concentration at 0.033 h, item Cc1ncsc1-c1ccc(CNC(=O)[C@@H]2C[C@@H](O)CN2C(=O)[C@@H](NC(=O)COCCCOc2ccc(Nc3ncc(C(F)(F)F)c(NCc4cccc(N(C)S(C)(=O)=O)c4)n3)cc2)C(C)(C)C)cc1
1800

Return reported concentration at 0.033 h; argument: Cc1ncsc1-c1ccc(CNC(=O)[C@@H]2C[C@@H](O)CN2C(=O)[C@@H](NC(=O)CCOCCOc2ccc(Nc3ncc(C(F)(F)F)c(NCc4cccc(N(C)S(C)(=O)=O)c4)n3)cc2)C(C)(C)C)cc1
1820

----------
test: Pharmacokinetics of intraperitoneal or intravenous injection in CD1 mice; format: in vivo; settings: male, CD1, mouse, plasma, iv, 1 mg/kg, IV 1.0 mg/kg, CD1 mice plasma, 0.083 h; read-out: Conc. (ng/mL) Mouse 3
# log10(concentration at 0.083 h) annotations
Hello, just confirming the data are log10 of concentration at 0.083 h with units of ng/mL.

Example entries begin here.
{"MOLECULE": "Cc1ncsc1-c1ccc(CNC(=O)[C@@H]2C[C@@H](O)CN2C(=O)[C@@H](NC(=O)COCCOc2ccc(Nc3ncc(C(F)(F)F)c(NCc4cccc(N(C)S(C)(=O)=O)c4)n3)cc2)C(C)(C)C)cc1", "log10(concentration at 0.083 h)": 2.31}
{"MOLECULE": "CN(c1cccc(CNc2nc(Nc3ccc(OCCCOCCC(=O)NCCOc4cccc5c4C(=O)N(C4CCC(=O)NC4=O)C5=O)cc3)ncc2C(F)(F)F)c1)S(C)(=O)=O (centres unmarked)", "log10(concentration at 0.083 h)": 0.98}
{"MOLECULE": "Cc1ncsc1-c1ccc(CNC(=O)[C@@H]2C[C@@H](O)CN2C(=O)[C@@H](NC(=O)CCOCCCOc2ccc(Nc3ncc(C(F)(F)F)c(NCc4cccc(N(C)S(C)(=O)=O)c4)n3)cc2)C(C)(C)C)cc1", "log10(concentration at 0.083 h)": 3.26}

Requested field: log10(concentration at 0.083 h). Item: Cc1ncsc1-c1ccc(CNC(=O)[C@@H]2C[C@@H](O)CN2C(=O)[C@@H](NC(=O)CCOCCOc2ccc(Nc3ncc(C(F)(F)F)c(NCc4cccc(N(C)S(C)(=O)=O)c4)n3)cc2)C(C)(C)C)cc1
2.52

Request the reported log10(concentration at 0.083 h) associated with Cc1ncsc1-c1ccc(CNC(=O)[C@@H]2C[C@@H](O)CN2C(=O)[C@@H](NC(=O)COCCCOc2ccc(Nc3ncc(C(F)(F)F)c(NCc4cccc(N(C)S(C)(=O)=O)c4)n3)cc2)C(C)(C)C)cc1
2.64
